- Target Or System: T1, human programmed cell death protein 1 (hPD-1) C93S (aa 24-167) (Homo sapiens, UniProt Q15116, C93S)
- T1 construct: made as a fusion with a TEV site and human Fc; the Fc was cut off with TEV protease; source: Expi293F, purified (Protein A, TEV cleavage of Fc, SEC; monomer fractions); not shown: Fc (human), C-terminal, cleaved
- T1 sequence (Q15116 24-167 C93S): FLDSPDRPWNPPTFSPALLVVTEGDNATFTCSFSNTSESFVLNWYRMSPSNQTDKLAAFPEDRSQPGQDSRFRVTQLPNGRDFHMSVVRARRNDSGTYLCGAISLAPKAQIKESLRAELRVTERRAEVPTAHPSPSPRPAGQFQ
- Test Protocol: SPR; Carterra LSA; Fab from the ammonium sulfate precipitate of the culture supernatant immobilised on a NiHC200M chip; hPD-1 (1-1024 nM) or mPD-1-Fc (4-1024 nM) as analyte, fourfold dilution series, no regeneration; HBS-EP pH 7.4, 25 °C; medians over the spots of a construct, KD = koff/kon
- Measurement Conditions: one partner purified
Entries and their kon values follow.
Observed Property: kon (M⁻¹ s⁻¹)

INSERT INTO assay_data (binder, observed_measurement) VALUES
  ('toripalimab Fab L.V99K (Fab, V domains shown, as the heavy chain of Sm3; light chain of Sm3 with this change; numbers count from the chain''s first residue; source: Brevibacillus, culture supernatant (ammonium sulfate precipitate); not shown: 6xHis, C-terminal, kept; 6xHN, C-terminal, kept) VH: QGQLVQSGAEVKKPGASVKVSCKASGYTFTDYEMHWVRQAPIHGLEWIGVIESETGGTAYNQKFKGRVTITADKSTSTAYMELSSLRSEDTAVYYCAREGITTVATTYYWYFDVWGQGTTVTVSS VL: DVVMTQSPLSLPVTLGQPASISCRSSQSIVHSNGNTYLEWYLQKPGQSPQLLIYKVSNRFSGVPDRFSGSGSGTDFTLKISRVEAEDVGVYYCFQGSHKPLTFGQGTKLEIK', 4260),
  ('toripalimab Fab L.Q27Y (Fab, V domains shown, as the heavy chain of Sm3; light chain of Sm3 with this change; numbers count from the chain''s first residue; source: Brevibacillus, culture supernatant (ammonium sulfate precipitate); not shown: 6xHis, C-terminal, kept; 6xHN, C-terminal, kept) VH: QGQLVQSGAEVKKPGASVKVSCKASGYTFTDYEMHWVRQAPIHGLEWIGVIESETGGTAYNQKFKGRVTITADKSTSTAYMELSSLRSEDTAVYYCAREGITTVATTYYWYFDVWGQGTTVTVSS VL: DVVMTQSPLSLPVTLGQPASISCRSSYSIVHSNGNTYLEWYLQKPGQSPQLLIYKVSNRFSGVPDRFSGSGSGTDFTLKISRVEAEDVGVYYCFQGSHVPLTFGQGTKLEIK', 29200),
  ('toripalimab Fab L.S32A (Fab, V domains shown, as the heavy chain of Sm3; light chain of Sm3 with this change; numbers count from the chain''s first residue; source: Brevibacillus, culture supernatant (ammonium sulfate precipitate); not shown: 6xHis, C-terminal, kept; 6xHN, C-terminal, kept) VH: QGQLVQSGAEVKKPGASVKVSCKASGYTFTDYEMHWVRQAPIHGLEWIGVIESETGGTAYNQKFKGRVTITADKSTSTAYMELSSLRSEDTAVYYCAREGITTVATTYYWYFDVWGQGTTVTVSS VL: DVVMTQSPLSLPVTLGQPASISCRSSQSIVHANGNTYLEWYLQKPGQSPQLLIYKVSNRFSGVPDRFSGSGSGTDFTLKISRVEAEDVGVYYCFQGSHVPLTFGQGTKLEIK', 7410),
  ('toripalimab Fab H.T55Y (Fab, V domains shown, heavy chain of Sm3 with this change; numbers count from the chain''s first residue; as the light chain of Sm3; source: Brevibacillus, culture supernatant (ammonium sulfate precipitate); not shown: 6xHis, C-terminal, kept; 6xHN, C-terminal, kept) VH: QGQLVQSGAEVKKPGASVKVSCKASGYTFTDYEMHWVRQAPIHGLEWIGVIESEYGGTAYNQKFKGRVTITADKSTSTAYMELSSLRSEDTAVYYCAREGITTVATTYYWYFDVWGQGTTVTVSS VL: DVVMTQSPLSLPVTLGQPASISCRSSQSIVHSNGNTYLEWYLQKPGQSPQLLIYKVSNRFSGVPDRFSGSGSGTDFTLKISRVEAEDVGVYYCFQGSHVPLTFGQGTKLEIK', 28300),
  ('toripalimab Fab L.E39A (Fab, V domains shown, as the heavy chain of Sm3; light chain of Sm3 with this change; numbers count from the chain''s first residue; source: Brevibacillus, culture supernatant (ammonium sulfate precipitate); not shown: 6xHis, C-terminal, kept; 6xHN, C-terminal, kept) VH: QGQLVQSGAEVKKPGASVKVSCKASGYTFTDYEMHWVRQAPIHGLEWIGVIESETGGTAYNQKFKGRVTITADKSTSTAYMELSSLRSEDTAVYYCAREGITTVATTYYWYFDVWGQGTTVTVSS VL: DVVMTQSPLSLPVTLGQPASISCRSSQSIVHSNGNTYLAWYLQKPGQSPQLLIYKVSNRFSGVPDRFSGSGSGTDFTLKISRVEAEDVGVYYCFQGSHVPLTFGQGTKLEIK', 2290);

Cited source: paper PMC10663500
